Data provenance: PubChem BioAssay (NCI)

# Tested on: OVCAR-8 ovarian
# run_description: NCI tumour cell line growth inhibition, 48 h
Please provide measured TGI for the entries that follow.

Past entries and their recorded results:
{"columns": ["compound", "tested_system", "measure", "recorded_measurement"],
 "data": [
  ["O=C(Cc1csc2nc(-c3ccc(Br)cc3)cn12)N/N=C/c1ccccc1", "OVCAR-8 ovarian", "TGI", "20.5 µM"],
  ["CCOC(=O)/C(ON)=C(/CC/C(C(=O)OC)=C(\\ON)C(=O)OCC)C(=O)OC", "OVCAR-8 ovarian", "TGI", "> 100 µM"],
  ["O=C1N[C@H](Cc2cnc[nH]2)C(=O)N2CCC[C@@H]12", "OVCAR-8 ovarian", "TGI", "> 100 µM"],
  ["Nc1nc[n+](Cc2ccccc2)c2ncn(Cc3ccccc3)c12", "OVCAR-8 ovarian", "TGI", "> 100 µM"],
  ["O=C(O)CCn1cnc2c(=S)nc[nH]c21", "OVCAR-8 ovarian", "TGI", "> 100 µM"]
]}

Quick request: TGI for each listed item, please.
1. CCCCCNC(=O)c1cc2cc(CCl)ccc2oc1=O
2. COc1ccc([As]=[As]c2ccc(OC)c(NCS(=O)(=O)O)c2)cc1NCS(=O)(=O)O (configuration not stated)
3. COc1ccc(/C=N/Nc2nc(-c3cc4oc(=O)n(C)c4cc3Cl)cs2)cc1OC
4. CCOC(=O)C(Cc1c(C=O)[nH]c2ccccc12)(NC(=O)c1ccccc1)C(=O)OCC
5. COP(=O)(CC(=O)C1OC(C)(C)OC1C(O)COCc1ccccc1)OC (configuration not stated)
6. c1ccc(CSCCNCCN(CCNCCSCc2ccccc2)CCNCCSCc2ccccc2)cc1
7. CCN(Cc1ccccc1F)c1ccc(CO)c(Cl)c1

A.
1. > 100 µM
2. 6.84 µM
3. > 100 µM
4. 65.7 µM
5. > 100 µM
6. 3.02 µM
7. > 57 µM

Quick request: TGI for each listed item, please.
1. CCCCCCCCCCOC1C(C(O)CNCCCN(C)C)OC2OC3(CCCCC3)OC21 (configuration not stated)
2. O=C(O)CCc1ccc(-c2ccccc2)[nH]1
3. CC(=O)NNc1nc(C)c(C(=O)NNC(=O)C(=O)Nc2c(C)cccc2C(C)C)s1
4. CCn1c2ccccc2c2nnc(NCCCO)nc21
5. Cn1nc(-c2ccccc2)c(C(=O)/C=C/c2ccc(F)cc2)c(N2CCCC2)c1=O
6. O=C(CI)OCC(COC(=O)CI)OC(=O)CI

A.
1. 4.18 µM
2. > 100 µM
3. > 100 µM
4. > 100 µM
5. > 100 µM
6. 6.92 µM

Quick request: TGI for each listed item, please.
1. OCCN(CCO)CCn1cnc2c(NCc3ccccc3)ncnc21
2. NC(=O)c1nnsc1N/N=C/c1ccc([N+](=O)[O-])cc1

A.
1. > 100 µM
2. > 100 µM

Quick request: TGI for each listed item, please.
1. N#CCCN(c1ccc(/C=N/c2nc(-c3ccccc3)cs2)cc1)S(=O)(=O)c1ccccc1
2. C[O+]=c1cccc2ssnc1-2
3. CS(=O)(=O)c1ccc(Oc2cc(F)cc(C#N)c2)c2c1[C@H](O)[C@H](F)[C@H]2F
4. CCCCN(CCCC)CC(C(=O)Nc1ccccc1)/C(C)=N\NC(=O)c1ccncc1 (configuration not stated)

A.
> 100 µM
74.1 µM
> 100 µM
> 100 µM
